# EC50 values compiled below
target: human 5HT2c receptor (Homo sapiens, UniProt P28335, I156V/I160V, form not given); assay: Calcium mobilization (FLIPR) 5HT2c receptor agonist assay in HEK 293 EBNA cells; conditions: agonist-stimulated calcium release, HEK 293 EBNA cells expressing human 5HT2c receptor, read-out: 5-HT2c EC50 (hVSV)
Sequence (P28335 whole entry I156V/N158S/I160V, form open): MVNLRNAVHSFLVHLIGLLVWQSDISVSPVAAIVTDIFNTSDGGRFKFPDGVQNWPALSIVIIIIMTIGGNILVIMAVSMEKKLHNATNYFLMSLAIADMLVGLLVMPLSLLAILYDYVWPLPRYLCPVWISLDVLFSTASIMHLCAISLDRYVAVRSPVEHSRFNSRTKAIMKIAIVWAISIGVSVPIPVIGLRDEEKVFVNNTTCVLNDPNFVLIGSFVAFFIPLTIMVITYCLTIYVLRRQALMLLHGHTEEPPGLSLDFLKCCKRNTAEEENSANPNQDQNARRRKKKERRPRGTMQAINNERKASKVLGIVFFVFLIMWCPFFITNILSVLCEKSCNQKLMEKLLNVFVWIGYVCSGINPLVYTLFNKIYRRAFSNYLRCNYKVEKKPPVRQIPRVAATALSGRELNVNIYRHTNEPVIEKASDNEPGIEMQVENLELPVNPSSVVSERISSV

The cases that follow already have their EC50 on record.
molecule	observed value
CN(C)S(=O)(=O)c1cc2c(s1)CCNCC2	< 10 nM
COc1c(C)sc2c1CCNCC2	< 10 nM
CC(C)(C)CC(C)(C)c1sc2c(c1Cl)CCNCC2	< 10000 nM
O=S(=O)(c1cc2c(s1)CCNCC2)N1CCCC1	< 10 nM
Cc1c(C(C)(C)C)sc2c1CCNCC2	< 100 nM
Brc1sc2c3c1CCC3CNCC2 (single isomer, unassigned) [37, Enantiomer 2]	< 100 nM
FC(F)(F)Oc1ccc(-c2cc3c(s2)CCNCC3)cc1	> 10000 nM
Cc1csc2c1CCNCC2	< 1000 nM
COc1c(C(C)(C)C)sc2c1CCNCC2	< 10 nM
CC(C)(C)c1sc2c(c1Cl)CCNCC2	< 100 nM

input: Consider the molecule shown here: CC1CNCCc2cc(Cl)sc21 (racemic) What is its recorded EC50?
output: < 100 nM

input: Could you share which EC50 value was measured for "Brc1cc2c(o1)CCNCC2" ?
output: < 1000 nM

input: Could you tell me which EC50 is on file for "CC(C)(C)c1cc2c(s1)CCNCC2" ?
output: < 100 nM

input: Record request: EC50 value, item "CCc1ccc(-c2cc3c(s2)CCNCC3)cc1"
output: > 10000 nM

input: Query: EC50; subject: "Cc1c(S(=O)(=O)N(C)C)sc2c1CCNCC2"
output: < 10 nM

input: Returns the measured EC50 for the input molecule. Input: CC1CNCCc2sc(Br)c(Br)c21 (single isomer, unassigned) [32, Enantiomer 1]
output: < 10000 nM
